experiment: yeast display, Sf9 membrane polyspecificity reagent, FACS + sequencing; frameworks hold sequencing errors
Reported Endpoint: polyreactivity (PSR sort gate)

Consider the following illustrative entries.
| Sequence Text | Reported Endpoint | Reading |
| --- | --- | --- |
| QVQLVESGGGLVQAGGSLRLSCAASGLTFSTYDMGGYRQAPGKERELVAAITSGDGSTYYADSVKGRFTISRDNAKNTVYLQMNSLKPEDTAVYYCAADYLEWYGDVLFPYDYWGQGTQVTVSS | polyreactivity (PSR sort gate) | low polyreactivity |
| QVQLVESGGGLVQAGGSLRLSCAASGSIYGPYAMGWYRQAPGKERELVAAIAESSGSTYYADSVKGRFTISRDNAKNTVYLQMNRMKPEDTAVYYCAAEQITGWSWVWGSWYDYWGQGTQVTVSS | polyreactivity (PSR sort gate) | low polyreactivity |
| QVQLVESGGGLVQAGGSLRLSCAASGLIFAYYAMGWYRQAPGKERELVAAISWTGGSTYYADSVKGRFTISRDNAKNTVYLQMTSLKPEDTAVYYCNTVGKPGFYSWGQGTQVTVSS | polyreactivity (PSR sort gate) | high polyreactivity |
| QVQLVESVGGLVQAGGSLRLSCAASGSTFTAYAMGWYRQAPGKERELVAAITSGGSKNYADSVKGRFTISRDNAKNTVYLQMNSLKPEDTAVYYCNADDYWLDSWSSFLWYDYWGQGTQVTVSS | polyreactivity (PSR sort gate) | low polyreactivity |
| QVQLVESGGGLVQAGGSLRLSCAASGRISSIYAMGCYRQAPGKERELVATISVRTTGTYYADSVKGRFTISRDNAKNTVYLQMNSLKPEDTAVYYCAAAKRRGYYVKYDYWGQGTQVTVSS | polyreactivity (PSR sort gate) | high polyreactivity |
| QVQLVESGGGLVQAGGSLRLSCAASGSIFLDYAMGWYRQAPGKERELVATITSGSSTYADSVKGRFTISRDNAKNTVYLQMNSLKPEDTAVYYCNVKLIVRYWNPSPYDYWGQGTQVTVSS | polyreactivity (PSR sort gate) | low polyreactivity |
| QVQLVESGGGLVQAGGSLRLSCAASGLTFVFYAMGWYRQAPGNERELVAAISWSTGRTYYADSVKGRFTISRDNAKNTVYLQMNSLKPEDTAVYYCAASYLGRKYDYWGQGTQVTVSS | polyreactivity (PSR sort gate) | high polyreactivity |
| QVQLVESGGGLVQAGGSLLLSCAASGITSWYYVMGWYRQAPGKERELVAAITRSGGSTYYADSVKGRFTISRDTAKNTVFLQMNSLKPEDTAVYYCAARSYPQRWTTYPYGYWGQGTQVTVSS | polyreactivity (PSR sort gate) | high polyreactivity |

IN: Recorded polyreactivity (PSR sort gate) of `QVQLVESGGGLVKAGCSLRLSCAASGRTFGTYAMGWYRQAPGKERELVAAISSGGSTYADSVKGRFTISRDNAMNTVYLQMKSLKPEDTAVYYCTTRYPMGGTYTRYPLKGDYWGQGTQVTVSS` , please.
OUT: high polyreactivity

---

experiment: yeast display, Sf9 membrane polyspecificity reagent, FACS + sequencing; frameworks hold sequencing errors
Reported Endpoint: polyreactivity (PSR sort gate)

| Sequence Text | polyreactivity (PSR sort gate) |
| --- | --- |
| QVQLVESGGGLVQAGGSLRLSCAASGRIFGVYAMGWYRQAPGKERELVADITRGGGSTYYADSVKGRFTISRDNAKNTVYLQMNSLKPEDTAVYYCAARYRFQRGGYYYWGQGTQVTVSS | high polyreactivity |
| QVQLVESGGGLVQAGGSLRLSCAASGITFRKYAMGWYRQAPGKERELVAGIRYSGSSTYYADSVKGRFTISRDNAKNTVYLQMNSLKPEDTAVYYCAVYGTTRYATTYDYWGQGTQVTVSS | high polyreactivity |
| QLQLVESGGGLLQAGGSLRLSCAASGSTFVSNAMGWYRQAPGKERELVATITTSGGSTYYADSVKGRFRNSRDNAKTTVYLQMNSLNPEDTAVYYCNAVYLFCYSGDLDYWGQGTQVTVSS | low polyreactivity |
| QVQLVESGGGLVQAGGSLRLSCAASGFIFGLNAMGWYRPAPGKERELVAAIRSASSTNYADSVKGRFTISRDNAKNTVYLQMNSVKPEDTAVYYCAAEYVTYQQGFWGYDYWGQGTEVTVSS | low polyreactivity |
| QVQLVESGGGLVKAGGSLRLSCAASGFTFGYYTMGWYRQAPGKERELVAAISSSGGSTHYADSVKGRFTISRDNAKNTVYLQMNSLKPEDTAVYYCAARYINRYPKAQPTDRSIYYWGQGTQVTVSS | high polyreactivity |

Turning to the following sequence.
IN: Which polyreactivity (PSR sort gate) is listed for `QVQLVESGGGLVQAGGSLRLSCAASGFIFDQNAMGWYRQAPGKERELVAAITRSGGCTYYADSVKGRFTISRDNAKNTVYLQMYSLNPEDTAVYYCAADLSYRGATRGDYYWGPGTQVTVSS` ?
OUT: low polyreactivity

Each recorded value in this set is attributed to the nanobody polyreactivity screen of Harvey et al. (2022).
